Reference for the values: the supplement of paper PMC6522484

system: SW480; assay: cell viability (CellTiter-Glo) relative to plate median (fraction of plate median); higher = more viable cells; settings: 5 µM; treatment time 24 h; reporter: 7TFP
Metric name: cell viability

Examples with their reported cell viability follow.
Given the compound CC(CN(C)C)CN1c2ccccc2Sc2ccccc21 (stereo not drawn) , what is its reported cell viability? 1.06

Reported cell viability for CC1(C)O[C@@H]2[C@@H](CO[C@@]3(COS(N)(=O)=O)OC(C)(C)O[C@@H]23)O1 : what is it? 1.03

Quick one: cell viability for CC1(C)O[C@@H]2C[C@H]3[C@@H]4C[C@H](F)C5=CC(=O)C=C[C@]5(C)[C@H]4[C@@H](O)C[C@]3(C)[C@]2(C(=O)CO)O1 ? 0.978

So what does the record say about cell viability for COC(=O)C(N)CS (stereo not drawn) ? 1

Next:
Field request: cell viability | item: NC(=O)CC[C@H](N)C(=O)O 1.02

Which value of cell viability has been reported for O=C(/C=C/c1ccccc1)c1ccc(O)cc1 in the records? 0.898

For the compound shown here, C=CCCCCCCCCC(=O)O , give the reported cell viability. 1

====

tested on: HCT116; assay: TCF/Wnt firefly luciferase reporter signal relative to plate median (fraction of plate median); higher = higher Wnt reporter signal; conditions: 10 µM; treatment time 24 h; reporter: TCF4/Wnt
TCF/Wnt firefly luciferase reporter signal below 1 gives F; TCF/Wnt firefly luciferase reporter signal at or above it gives T.

Confirm if TCF/Wnt firefly luciferase reporter signal reported for the compound O=C(Nc1c[nH]nc1-c1nc2ccc(CN3CCOCC3)cc2[nH]1)NC1CC1 is 1 or above. F

Hi, just wondering whether CCn1nnc2c(N3CCOCC3)nc(-c3ccc(NC(=O)Nc4ccc(C(=O)N5CCN(C)CC5)cc4)cc3)nc21 shows TCF/Wnt firefly luciferase reporter signal of 1 or higher. F

Is it the case that O=C(NOC[C@H](O)CO)c1ccc(F)c(F)c1Nc1ccc(I)cc1F has TCF/Wnt firefly luciferase reporter signal reaching or exceeding 1? T

Could you now look at the following compound, please?
Form field: TCF/Wnt firefly luciferase reporter signal at least 1? Entry: NC(=O)Nc1sc(-c2ccc(F)cc2)cc1C(N)=O T

====

Measured TCF/Wnt firefly luciferase reporter signal of individual entries
system: DLD1; assay: TCF/Wnt firefly luciferase reporter signal relative to plate median (fraction of plate median); higher = higher Wnt reporter signal; settings: 5 µM; treatment time 24 h; reporter: 7TFP
Lab note: jot down the number only; don't add units.

# count of solved cases: 3
Fill blank: measured TCF/Wnt firefly luciferase reporter signal of the compound CCOC(=O)n1ccn(C)c1=S is ____. 0.973

Form field: reported TCF/Wnt firefly luciferase reporter signal of CC(=O)OCC(=O)[C@@]1(O)CC[C@H]2[C@@H]3CC[C@@H]4C[C@H](O)CC[C@]4(C)[C@H]3C(=O)C[C@@]21C 0.968

Which TCF/Wnt firefly luciferase reporter signal is listed for CC(=O)OC1CCC2(C)C(=CCC3C2CCC2(C)C(C(C)CCCC(C)C)CCC32)C1 (centres undefined) ? 1.11

Further cases:
What does the record list as TCF/Wnt firefly luciferase reporter signal for O=C(OCC(O)CO)c1ccccc1Nc1ccnc2cc(Cl)ccc12 (centres undefined) ? 0.954

// query TCF/Wnt firefly luciferase reporter signal value for entry COc1ccc2c(c1)OCC(Cc1ccc(OC)c(OC)c1)C2=O (centres undefined) 0.997

Entry CC1=Nc2ccc(Cl)cc2S(=O)(=O)N1 has what TCF/Wnt firefly luciferase reporter signal? 1.14

Given the entry COc1cccc2c1CCC1=CC(=O)CC[C@@]12C , report its measured TCF/Wnt firefly luciferase reporter signal. 0.944

I would be grateful if you could share the reported TCF/Wnt firefly luciferase reporter signal for C[C@@H]1NC(=O)[C@@H](N)CNC(=O)[C@H](C2CCNC(=N)N2)NC(=O)/C(=C/NC(N)=O)NC(=O)[C@H](CNC(=O)CC(N)CCCN)NC1=O.N=C1NCC[C@H]([C@@H]2NC(=O)/C(=C/NC(N)=O)NC(=O)[C@H](CNC(=O)C[C@@H](N)CCCN)NC(=O)[C@H](CO)NC(=O)[C@@H](N)CNC2=O)N1 . 0.816

Requested field: TCF/Wnt firefly luciferase reporter signal. Item: C[C@H]1C[C@@H]2[C@H]([C@@H](O)C[C@@]3(C)[C@H]2CC[C@]3(O)C(=O)COC(=O)CCC(=O)O)[C@@]2(C)C=CC(=O)C=C12 0.964

For the compound O=C(O)CCC(=O)OC[C@@H](NC(=O)C(Cl)Cl)[C@H](O)c1ccc([N+](=O)[O-])cc1 , what TCF/Wnt firefly luciferase reporter signal is on record? 0.838

I am curious: what TCF/Wnt firefly luciferase reporter signal value has been reported for NCCc1c[nH]cn1 ? 1.12

So what's the measured TCF/Wnt firefly luciferase reporter signal for this one? CC#C[C@]1(O)CC[C@H]2[C@@H]3CCC4=CC(=O)CCC4=C3[C@@H](c3ccc(N(C)C)cc3)C[C@@]21C 0.891
